assay: Aqueous solubility determination (saturated solution, HPLC; pH of saturated solution); type: physicochemical; settings: doubly distilled water; after 24 h of equilibration at 25°C; value corresponds to a hydrate of the benzathine salt, not to the anhydrous form
Where a name gives a salt, the structure may show the parent alone.
readout kind: solubility at 24 h
Report field: quantity (unit follows the number).

# input Look at this molecule and give its reported solubility at 24 h. O=C(O)CCCc1ccccc1 [Example 2, 4-Phenylbutyrate-Hemi-Benzathine salt]
# output 1700 µg/mL
